testedSystem: HNF4alpha8 (COS-7 nuclear extract) (Homo sapiens, UniProt P41235-5 1-452)
Sequence: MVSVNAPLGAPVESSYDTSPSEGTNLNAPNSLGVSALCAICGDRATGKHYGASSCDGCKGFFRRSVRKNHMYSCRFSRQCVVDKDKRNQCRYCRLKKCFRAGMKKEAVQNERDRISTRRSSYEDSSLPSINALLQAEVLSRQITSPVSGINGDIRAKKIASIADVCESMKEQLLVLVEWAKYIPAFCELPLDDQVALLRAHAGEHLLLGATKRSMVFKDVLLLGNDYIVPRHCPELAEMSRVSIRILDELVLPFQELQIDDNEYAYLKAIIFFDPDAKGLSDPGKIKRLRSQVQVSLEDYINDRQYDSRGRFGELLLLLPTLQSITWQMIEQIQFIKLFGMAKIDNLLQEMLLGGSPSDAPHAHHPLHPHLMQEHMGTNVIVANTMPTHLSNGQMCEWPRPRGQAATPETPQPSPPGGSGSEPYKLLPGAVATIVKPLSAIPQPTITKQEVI
procedureDetails: protein-binding microarray; COS-7 nuclear extract on double-stranded Agilent 4x180k PBM; binding buffer, salt, pH and temperature not given in the material; high values mean tight binding
assayContext: chain copies: 2; label: 3' end of strand 1 on the slide; dsDNA, one strand shown
The full ranking holds about 18,000 sequences; the median of “log2 normalized intensity” is about 0.36, and the highest 2% start at about 7.3. Shown is part of a subset that was picked to be rich in the highest values.
endpointLabel: binding signal (log2 normalized intensity)
Give the value in log2 normalized intensity but do not write log2 normalized intensity after it.

Q. Write down binding signal measured for item CCTCCTGCTTAGCGGCCTTCCCCTTTTTCTGCCTAGGGAGATTAGAGTATCGGTCGA
A. 1.99

Q. Write down binding signal measured for item CCATGACCTTTGTACTAATGATTTGTAAATGCCTAGGGAGATTAGAGTATCGGTCGA
A. 6.03

Q. Write down binding signal measured for item CCGTCTCTCACCAAATCCCTGCCCACATCCGCCTAGGGAGATTAGAGTATCGGTCGA
A. 2.23

Q. Write down binding signal measured for item CCTATGGTCTGTTCACTTGCCAAGCCTAGTGCCTAGGGAGATTAGAGTATCGGTCGA
A. -0.838

Q. Write down binding signal measured for item GACCTTTATATGTCCACCTTATCTAATGCCGCCTAGGGAGATTAGAGTATCGGTCGA
A. 2.22

Q. Write down binding signal measured for item GGCATGGGAAGCAGTGAGGGTGGGTTCAAAGCCTAGGGAGATTAGAGTATCGGTCGA
A. 1.64

Q. Write down binding signal measured for item GCTCCTGTTCCTTTGTTACACTGGCTGCCCGCCTAGGGAGATTAGAGTATCGGTCGA
A. 2.08

Q. Write down binding signal measured for item GAGGGTGGGTTCAAAGGTCAGAAAAAGCTGGCCTAGGGAGATTAGAGTATCGGTCGA
A. 7.27

Q. Write down binding signal measured for item GGTTAAAATTTATCTATTGGGTACAATGTTGCCTAGGGAGATTAGAGTATCGGTCGA
A. 2.37

Q. Write down binding signal measured for item AGGTACTGGTAGCCTGGGCCCCAGGGGACGGCCTAGGGAGATTAGAGTATCGGTCGA
A. -0.625

Q. Write down binding signal measured for item CAATCCCATGACCTTTGTACTAATGATTTGGCCTAGGGAGATTAGAGTATCGGTCGA
A. 6.73

Q. Write down binding signal measured for item CCCCGCCCGCAGCCCAGTCTTGGCCCCACCGCCTAGGGAGATTAGAGTATCGGTCGA
A. 6.38

Q. Write down binding signal measured for item TATATTCAACCCCCACTTCCTGACTTGGCCGCCTAGGGAGATTAGAGTATCGGTCGA
A. 3.85

Q. Write down binding signal measured for item TGTCTTCTGACCTTTGGCAATATCTCCCAGGCCTAGGGAGATTAGAGTATCGGTCGA
A. 3.96

Q. Write down binding signal measured for item AACTATGCAGTGTCCATGGTGACCATGTGAGCCTAGGGAGATTAGAGTATCGGTCGA
A. 1.71

Q. Write down binding signal measured for item TCTTCCTAGGCAATCCCATGACCTTTGTACGCCTAGGGAGATTAGAGTATCGGTCGA
A. 9.08

Q. Write down binding signal measured for item AGCTTGCTCTCACCAGCTTCTTCTCTTTGAGCCTAGGGAGATTAGAGTATCGGTCGA
A. -0.143

Q. Write down binding signal measured for item GGGAAGCAGTGAGGGTGGGTTCAAAGGTCAGCCTAGGGAGATTAGAGTATCGGTCGA
A. 8.86

Q. Write down binding signal measured for item AGTAGGCACTATTATCCCCCTATCCCAAGAGCCTAGGGAGATTAGAGTATCGGTCGA
A. 4.72
